- Tested on: HCT-8
- measurement-notes: Cytotoxicity against human HCT8 cells
- Format: functional, cell-based
Calls of active or inactive are those of the source. No cut-off for these calls is given here.

compound	assay-system	inhibition
O=C1N2[C@H]3[C@H](C[C@]24SS[C@]12C[C@H]1[C@@H]([C@@H](O)CC[C@@H]1O)N2C4=O)[C@@H](O)CC[C@@H]3O	HCT-8	inactive
O=C1CC[C@H](O)[C@H]2[C@H]1C[C@@]13SS[C@]4(C[C@H]5[C@@H]([C@@H](O)CC[C@@H]5O)N4C1=O)C(=O)N23	HCT-8	inactive
CS[C@@]12C[C@H]3C(=O)C=C[C@H](O)[C@H]3N1C(=O)[C@]1(SC)C[C@H]3C(=O)CC[C@H](O)[C@H]3N1C2=O	HCT-8	inactive
CS[C@@]12C[C@H]3[C@@H]([C@@H](O)CC[C@@H]3O)N1C(=O)[C@]1(SC)C[C@H]3[C@@H]([C@@H](O)CC[C@@H]3O)N1C2=O	HCT-8	inactive
O=C1C[C@@H]2SS[C@@]34C[C@@H]1[C@@H]([C@H]2O)N3C(=O)[C@@]12C[C@H]3C(=O)C[C@H](SS1)[C@H](O)[C@H]3N2C4=O	HCT-8	inactive
CS[C@@]12C[C@H]3C(=O)CC[C@H](O)[C@H]3N1C(=O)[C@]1(SC)C[C@H]3[C@@H]([C@@H](O)CC[C@@H]3O)N1C2=O	HCT-8	inactive
CS[C@@]12C[C@H]3C(=O)CC[C@H](O)[C@H]3N1C(=O)[C@@]13C[C@H]4C(=O)C[C@@H](SS1)[C@H](O)[C@H]4N3C2=O [EPICOCCIN M]	HCT-8	inactive
